molecular target: Potassium channel subfamily K member 3 (Homo sapiens) (UniProt O14649); experiment: human KCNK3 channel inhibitors, primary screen, CHO cells, FluxOR thallium flux, B-score (AID 602410); details: FluxOR fluorescence, at 10 µM;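 for B-score: more negative B-score means stronger inhibition of thallium flux through KCNK3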
Sequence (O14649 whole entry, looked up): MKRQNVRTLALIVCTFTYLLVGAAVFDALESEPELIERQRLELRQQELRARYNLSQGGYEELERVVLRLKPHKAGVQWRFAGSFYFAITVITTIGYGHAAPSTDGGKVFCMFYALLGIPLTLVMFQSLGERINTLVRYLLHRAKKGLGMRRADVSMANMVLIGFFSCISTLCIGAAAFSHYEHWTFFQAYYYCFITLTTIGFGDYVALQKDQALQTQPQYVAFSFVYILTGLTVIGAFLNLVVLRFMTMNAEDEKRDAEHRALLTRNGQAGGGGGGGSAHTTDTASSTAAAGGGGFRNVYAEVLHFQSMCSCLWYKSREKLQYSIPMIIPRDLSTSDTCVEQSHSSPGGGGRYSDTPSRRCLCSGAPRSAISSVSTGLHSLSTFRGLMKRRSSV
Out of some 340,000 compounds screened, about 2,800 (0.82%) were called active.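 Rule for the calls: active = B-score under library mean minus 4 SD, starting fluorescence ratio at most library mean plus 5 SD; inactive = the rest.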 This is one part of a sample in which actives are shown more often than they occur.
Outcome codes: active, inactive

* Cc1ccc(C(=O)NNC(=O)CSc2nnc3ccccn23)cc1 | inactive
* S=C(Nc1cccc(Br)c1)N1CCn2cccc2C1c1cccnc1 (stereo unspecified) | active
* CCc1nc(SCC(=O)NNC(=O)c2ccc(C)cc2)c2ccccc2n1 | active
* S=C(NCCc1ccccc1)N1CCn2cccc2C1c1ccncc1 (stereo unspecified) | inactive
* CCN1CCN(c2c(Cl)cccc2NC(=O)c2ccc(Br)o2)CC1 | inactive
* CCCC(=O)Nc1ccc(Cl)c(NC(=O)c2ccc(Br)o2)c1 | active
